- test.protocol: Primary qHTS for inhibitors of nuclear receptor binding SET domain protein 2 (NSD2) in an isogenic RCH-ACV NSD2 p.E1099K mutant (9B) (AID 1645876); further: nearly all actives have a fitted effect of over 70% in size
- cond: RCH-ACV (leukaemia line) NSD2 E1099K (9B) viability, CellTiter-Glo, 72 h; series mostly up to 44.9 µM
Records with an inconclusive call do not appear. Active and inactive are the calls of the source. The call rests on the fitted dose curve; in most records, active means well fitted inhibition curve with a large enough effect; inconclusive means small, poorly fitted or top-dose-only effect; inactive means flat fitted curve, though single readings scatter.
Valid outcomes are listed here; reply with one: 1 (yes) (active), 0 (no) (inactive)

Called result for O=c1ccc2ccc(OCCCCN3CCN(c4cccc5sccc45)CC3)cc2[nH]1
1 (yes)

Called result for CC(C)C[C@H](C(=O)O)c1cc(-c2ccc(C(F)(F)F)cc2)cc(-c2ccc(C(F)(F)F)cc2)c1
1 (yes)

Called result for CCCc1cc(C)n(C)c(=O)c1CN(C)C(=O)c1cc(-c2ccc(N3CCN(C(C)C)CC3)nc2)cc2c1cnn2C(C)C
0 (no)

Called result for CCS(=O)c1nc(-c2cccc(OCc3ccccc3)c2)cc(C(F)(F)F)n1 (stereo not given)
1 (yes)

Called result for NC(=O)c1cnc(N[C@@H]2CCCC[C@H]2N)nc1Nc1cccc(-n2nccn2)c1
1 (yes)

Called result for C=C1C(=O)O[C@@H]2C[C@H](C)[C@@H]3CC(=O)[C@H](O)[C@@]3(C)C[C@H]12
1 (yes)

Called result for Cc1ccc(F)cc1S(=O)(=O)N[C@@H]1CCN(Cc2ccc(OC(C)C)cc2)C1
1 (yes)

Called result for COC(=O)c1ccc2c(c1)[nH]c1ncnc(NCCCN3CCCCC3)c12
1 (yes)

Called result for O=C(Nc1cccc(C(F)(F)F)c1)Nc1ccc(Br)cc1-c1nn[nH]n1
0 (no)

Called result for C/C=C(/C)C(=O)O[C@H]1C=C(CO)C(=O)[C@H](OC(=O)/C(C)=C/CO)[C@H]1C(C)C
1 (yes)

###

- test.protocol: Drug repurposing screens with cells derived from glioblastoma tumor samples (AID 1345199); further: on the % scale 0 is the no-effect control and ±100 the full control effect; nearly all actives have a fitted effect of over 40% in size
- cond: GBM patient neurospheres viability, ATP luminescence, 48 h; at 45.9 µM (top of the series); tumour line D
Records with an inconclusive call do not appear.
Mark each entry 1 if its activity, negative = cell killing sits below -10%, and -1 for all others.

Record CC1(C)C2CC[C@]3(C)[C@H](C(=O)C=C4[C@@H]5C[C@@](C)(C(=O)O)CC[C@]5(C)CC[C@]43C)[C@@]2(C)CC[C@@H]1O[C@H]1O[C@H](C(=O)O)[C@@H](O)[C@H](O)[C@H]1O[C@@H]1O[C@H](C(=O)O)[C@@H](O)[C@H](O)[C@H]1O (some centres undefined) : is its activity, negative = cell killing strictly below -10%?
-1

Record O.O=C([O-])CC([S-])C(=O)[O-].[Au+].[Na+].[Na+] (centres undefined) : is its activity, negative = cell killing strictly below -10%?
-1

Record CC(=O)OC[C@H]1O[C@@H](O[C@H]2[C@H](O)[C@@H](OC(=O)c3ccccc3C(=O)O)[C@H](O)O[C@@H]2COC(C)=O)[C@H](O)[C@@H](OC(=O)c2ccccc2C(=O)O)[C@@H]1O : is its activity, negative = cell killing strictly below -10%?
-1

Record CC(C)(C)NC(=O)[C@H]1CC[C@H]2[C@@H]3CC=C4C=C(C(=O)O)CC[C@]4(C)[C@H]3CC[C@]12C : is its activity, negative = cell killing strictly below -10%?
-1

Record C=C[C@]1(C)C[C@@H](OC(=O)CO)[C@]2(C)[C@H](C)CC[C@]3(CCC(=O)[C@H]32)[C@@H](C)[C@@H]1O : is its activity, negative = cell killing strictly below -10%?
1

Record C1CNCCN1 : is its activity, negative = cell killing strictly below -10%?
1

Record CCN(CC)CCOC(=O)c1ccc(N)cc1Cl : is its activity, negative = cell killing strictly below -10%?
1

Record O=C(CO)[C@@H](O)[C@H](O)[C@H](O)CO : is its activity, negative = cell killing strictly below -10%?
-1

Record Cc1cc(Nc2ccccc2C(=O)O)ccc1Cl : is its activity, negative = cell killing strictly below -10%?
1

###

- test.protocol: Drug repurposing screens with cells derived from glioblastoma tumor samples (AID 1345199); further: on the % scale 0 is the no-effect control and ±100 the full control effect; nearly all actives have a fitted effect of over 40% in size
- cond: GBM patient neurospheres viability, ATP luminescence, 48 h; at 46.1 µM (top of the series); tumour line C
Results filed as inconclusive are left out.
Answer each item with its documented activity, negative = cell killing.
Could you give me the number in %? Just the number is fine.

Need activity, negative = cell killing, item COc1ccc(C(=O)Nc2ccccc2CCC2CCCCN2C)cc1 (stereo not given)
-23.4

Need activity, negative = cell killing, item CCCCCCCCCCCCCCCC(=O)OCCC1CCN(CCCN2c3ccccc3Sc3ccc(S(=O)(=O)N(C)C)cc32)CC1
11

Need activity, negative = cell killing, item O=C(CO)[C@@H](O)[C@H](O)[C@H](O)CO
19

Need activity, negative = cell killing, item CCCC(=O)O[C@]1(C(=O)COC(=O)CC)[C@@H](C)C[C@H]2[C@@H]3CCC4=CC(=O)C=C[C@]4(C)[C@@]3(F)[C@@H](O)C[C@@]21C
9.54

Need activity, negative = cell killing, item O=C(O)c1ccccc1[O-].O=C(O)c1ccccc1[O-].[Zn+2]
-14.8

Need activity, negative = cell killing, item NCCCNCCCCNC(=O)C(O)NC(=O)CCCCCCN=C(N)N (stereo not given)
-21.3

Need activity, negative = cell killing, item CC(CN(C)C)CN1c2ccccc2S(=O)(=O)c2ccccc21 (stereo not given)
14.3

Need activity, negative = cell killing, item C=CS(=O)(=O)O
-10.9

Need activity, negative = cell killing, item N[C@@H](C(=O)N[C@H]1C(=O)N2C(C(=O)O)=C(Cl)CC[C@H]12)c1ccccc1
-12.4

Need activity, negative = cell killing, item CCC(=O)O
7.14

Need activity, negative = cell killing, item CCC(c1ccccc1)c1noc(CCN(CC)CC)n1 (stereo not given)
-2.54

Need activity, negative = cell killing, item CCC(=O)Oc1ccc2c(c1)CC[C@@H]1[C@@H]2CC[C@]2(C)[C@@H](OC(=O)CC)CC[C@@H]12
-12.6

Need activity, negative = cell killing, item O=P(O)(O)OC(Cn1cncn1)(Cn1cncn1)c1ccc(F)cc1F
14

Need activity, negative = cell killing, item CC(=O)[C@@]1(O)CC[C@H]2[C@@H]3C=C(Cl)C4=CC(=O)CC[C@]4(C)[C@H]3CC[C@@]21C
-23.8

Need activity, negative = cell killing, item O=C(O)CC(O)(CC(=O)O)C(=O)O
8.12

###

- Tested on: NIH3T3
- test.protocol: Cytotoxic Profiling of Annotated Libraries Using Quantitative High-Throughput Screening (AID 1296008); further: on the % scale 0 is the no-effect control and ±100 the full control effect; nearly all actives have a fitted effect of over 60% in size
- cond: Five cell lines viability, CellTiter-Glo ATP luminescence, 48-72 h; active compounds read low
Inconclusive results are not listed.
Answer each item with its documented max response.
Could you give me the number in %? Just the number is fine.

Need max response, item O=C(NCCCN1CCC2(CC1)OCc1ccccc12)[C@H]1CCCN1Cc1ccccc1
4.93

Need max response, item Cc1ccc(C(C)C)c(O[C@@H]2O[C@H](CO)[C@@H](O)[C@H](O)[C@H]2O)c1
2.1

Need max response, item CC(C)n1c(=O)c(C(=O)NC2CC3CCC(C2)N3C[C@@H](O)CN(C)S(C)(=O)=O)cc2ccccc21 (stereo partly specified)
-22.5

Need max response, item COc1ccc(C2Oc3c(OC)cc(CCCO)cc3C2COC2OC(CO)C(O)C(O)C2O)cc1OC (stereo unspecified)
-1.06

Need max response, item CC(=O)O[C@H]1C[C@@](O)(C(C)C)[C@@H]2[C@@H](OC(=O)c3ccc(O)cc3)CC(C)=CC[C@@]12C
-25.3

Need max response, item CCCOc1ccc(CCc2nc3cc(-c4c(C)noc4C)ccc3n2CCN2CCOCC2)cc1
-3.98

Need max response, item COCCCNC(=O)c1ccc(Cn2c(=O)c3ccccc3n(Cc3ccc(C(C)C)cc3)c2=O)cc1
4.09

Need max response, item C/C(=C\Cc1c(O)c(Cl)c(C)c(C=O)c1O)CC/C=C(\C)[C@H]1CC(=O)C(C)(C)O1
-17.5

Need max response, item CC(=O)Nc1cccc(Nc2ncnc(N3CCC(OCc4ccc(OC(F)(F)F)cc4)CC3)n2)c1C
-3.89

Need max response, item CC(O)(C(=O)O)C1CCC2(C)C1CCC1(C)C2CCC2C3(C)CCC(O)C(C)(COC4OC(CO)C(O)C(O)C4O)C3CCC21C (stereo unspecified)
-2.95

Need max response, item OC1(CN2CCC(COc3noc4cccc(O[C@@H]5CCOC5)c34)CC2)CCOCC1
-22.8

Need max response, item O=C(NCc1ccc(OC(F)(F)F)cc1)C1c2c(F)cccc2C(=O)N1CCc1ccccn1 (stereo unspecified)
-2.89

Need max response, item O=c1ccc2ccc(OCCCCN3CCN(c4cccc5sccc45)CC3)cc2[nH]1
-13.6

Need max response, item CC(C)C[C@H](CO)Nc1nc(S[C@@H](C)c2ccccc2)nc2nc(N)sc12
2.79

Need max response, item CC(=O)O[C@@H]1[C@@H](OC(C)=O)[C@H](C)O[C@@H](O[C@H]2[C@@H]3C=CO[C@@H](O[C@@H]4O[C@H](CO)[C@@H](O)[C@H](O)[C@H]4O)[C@@H]3[C@@]3(CO)O[C@@H]23)[C@@H]1OC(=O)/C=C/c1ccccc1
-8.05

Need max response, item C/C(=C\CO[C@@H]1O[C@H](CO[C@H]2OC[C@](O)(CO)[C@H]2O)[C@@H](O)[C@H](O)[C@H]1O)C(C)(C)O
3.25

Need max response, item O=C(N[C@H]1CCC[C@H](CO)C1)C1CCN(c2nc3cc(Cl)c(-c4ccc(Cl)cc4)cc3o2)CC1
0.931

Need max response, item NC(N)=NC(=O)c1cnn(-c2cccc3ncccc23)c1C1CC1
-11.3

Need max response, item CC(=O)Nc1cccc(-c2csc(Nc3cc(C)ccn3)n2)c1
-21

Need max response, item COc1ccc(NC(=O)c2ccc(-c3ccc(-c4nnc(C)o4)cc3C)cc2)cc1N1CCN(C)CC1
-14.5

Need max response, item O=C(NCCO)c1cccc(-c2cc(Nc3ccc(OC(F)(F)F)cc3)ncn2)c1
-22.6
